Let's go through some recorded IC50 values for Norepinephrine transporter (Rattus norvegicus, UniProt Q9WTR4) together.
Numbers only, in µM.

Here are 5 molecules together with their reported answers.
{"columns": ["molecule", "IC50, µM"],
 "data": [
  ["C#Cc1ccc(C2CC3CCC(C2C(=O)OC)N3C)cc1 (stereo unspecified)", 0.0832],
  ["C/C=C\\c1ccc(C2CC3CCC(N3)C2C(=O)OC)cc1 (cis isomer)", 0.147],
  ["CC#Cc1ccc(C2CC3CCC(C2C(=O)OC)N3C)cc1 (stereo unspecified)", 0.82],
  ["C=Cc1ccc(C2CC3CCC(N3)C2C(=O)OC)cc1 (stereo unspecified)", 0.0149],
  ["CCCc1ccc(C2CC3CCC(N3)C2C(=O)OC)cc1 (stereo unspecified)", 0.532]
]}

Then there is this molecule:
The molecule C=C(C)c1ccc(C2CC3CCC(C2C(=O)OC)N3C)cc1 (stereo unspecified) , tested on Norepinephrine transporter (Rattus norvegicus, UniProt Q9WTR4), showed IC50 of 1.33

====

subject.of.test: Monoamine transporters; Norepinephrine & serotonin (Rattus norvegicus) (UniProt P31652+Q9WTR4)
assay.summary: Selectivity for norepinephrine and serotonin transporters
Type: protein assay
measured.parameter: Ratio
Numbers only.

Look over these answered cases.
{"columns": ["molecule", "measured.parameter", "value"],
 "data": [
  ["CC#Cc1ccc(C2CC3CCC(C2C(=O)OC)N3C)cc1 (stereo unspecified)", "Ratio", 52],
  ["C/C=C/c1ccc(C2CC3CCC(N3)C2C(=O)OC)cc1 (trans isomer)", "Ratio", 42],
  ["CCCc1ccc(C2CC3CCC(C2C(=O)OC)N3C)cc1 (stereo unspecified)", "Ratio", 56],
  ["C=CCc1ccc(C2CC3CCC(N3)C2C(=O)OC)cc1 (stereo unspecified)", "Ratio", 15]
]}

Can you give me Ratio for all of these, one by one?
1. CCc1ccc(C2CC3CCC(N3)C2C(=O)OC)cc1 (stereo unspecified)
2. C/C=C/c1ccc(C2CC3CCC(C2C(=O)OC)N3C)cc1 (stereo unspecified)
3. C/C=C\c1ccc(C2CC3CCC(N3)C2C(=O)OC)cc1 (cis isomer)
4. C=CCc1ccc(C2CC3CCC(C2C(=O)OC)N3C)cc1 (stereo unspecified)
5. C=C(C)c1ccc(C2CC3CCC(C2C(=O)OC)N3C)cc1 (stereo unspecified)
6. C=Cc1ccc(C2CC3CCC(N3)C2C(=O)OC)cc1 (stereo unspecified)
7. C#Cc1ccc(C2CC3CCC(N3)C2C(=O)OC)cc1 (stereo unspecified)
8. CCc1ccc(C2CC3CCC(C2C(=O)OC)N3C)cc1 (stereo unspecified)

A)
[15, 140, 128, 87, 425, 6.6, 13.7, 142]

====

subject.of.test: Sodium-dependent serotonin transporter (Rattus norvegicus)
Sequence (P31652 whole entry): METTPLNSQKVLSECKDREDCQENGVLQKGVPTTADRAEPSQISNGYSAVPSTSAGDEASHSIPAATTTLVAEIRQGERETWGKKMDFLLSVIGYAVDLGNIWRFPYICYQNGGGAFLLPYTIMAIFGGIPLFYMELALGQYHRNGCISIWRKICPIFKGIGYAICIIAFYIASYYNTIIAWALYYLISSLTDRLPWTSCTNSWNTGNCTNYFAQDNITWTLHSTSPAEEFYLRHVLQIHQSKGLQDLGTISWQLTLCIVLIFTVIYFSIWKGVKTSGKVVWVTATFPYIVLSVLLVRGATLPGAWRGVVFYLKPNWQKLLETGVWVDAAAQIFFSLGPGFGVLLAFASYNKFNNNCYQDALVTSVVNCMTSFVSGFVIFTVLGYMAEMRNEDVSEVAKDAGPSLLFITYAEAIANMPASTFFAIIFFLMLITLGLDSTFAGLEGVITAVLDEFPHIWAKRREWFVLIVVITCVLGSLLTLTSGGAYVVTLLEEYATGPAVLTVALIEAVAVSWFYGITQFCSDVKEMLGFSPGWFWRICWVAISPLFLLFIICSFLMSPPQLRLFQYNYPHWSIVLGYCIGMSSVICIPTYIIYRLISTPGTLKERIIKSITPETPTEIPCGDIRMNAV
Response field label: string, one of t (IC50 strictly below 7 nM) or f.

// below: answered compounds
{"columns": ["compound", "label.value"],
 "data": [
  ["C=Cc1ccc(C2CC3CCC(C2C(=O)OC)N3C)cc1 (stereo not drawn)", "f"],
  ["C=C(C)c1ccc(C2CC3CCC(N3)C2C(=O)OC)cc1 (stereo not drawn)", "t"],
  ["C=CCc1ccc(C2CC3CCC(C2C(=O)OC)N3C)cc1 (stereo not drawn)", "f"]
]}

Q) Strictly below 7 nM: is that where IC50 of C=CCc1ccc(C2CC3CCC(N3)C2C(=O)OC)cc1 (stereo not drawn) sits?
A) t

Q) Regarding COC(=O)C1C(c2ccc(C(C)C)cc2)CC2CCC1N2C (stereo not drawn) , kindly confirm whether its IC50 is beneath 7 nM.
A) f

Q) Quick check: IC50 of C#Cc1ccc(C2CC3CCC(N3)C2C(=O)OC)cc1 (stereo not drawn) under 7 nM?
A) t

Q) Hello, I'm reviewing records and need to know if IC50 of C/C=C\c1ccc(C2CC3CCC(N3)C2C(=O)OC)cc1 (cis isomer) is below 7 nM. Could you check?
A) t

Q) Quick check: IC50 of C/C=C/c1ccc(C2CC3CCC(N3)C2C(=O)OC)cc1 (trans isomer) under 7 nM?
A) t

Q) State whether 7 nM exceeds IC50 recorded for COC(=O)[C@@H]1C2CCC(C[C@@H]1OC(=O)c1ccccc1)N2 (stereo partly drawn) .
A) f

Q) Report whether reported IC50 is lower than 7 nM (strictly) for CC#Cc1ccc(C2CC3CCC(N3)C2C(=O)OC)cc1 (stereo not drawn)
A) t

Q) Lab note: confirm whether the reported IC50 for this compound is below 7 nM, equality not counting. compound: CCCc1ccc(C2CC3CCC(N3)C2C(=O)OC)cc1 (stereo not drawn)
A) f

Q) Does C#Cc1ccc(C2CC3CCC(C2C(=O)OC)N3C)cc1 (stereo not drawn) have IC50 strictly under 7 nM?
A) t
